B1: HDV Ribozyme (parent)
chain: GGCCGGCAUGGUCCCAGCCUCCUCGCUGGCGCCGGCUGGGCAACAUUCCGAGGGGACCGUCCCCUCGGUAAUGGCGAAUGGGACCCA

# Variants of: B1
# test.summary: self-cleavage, relative activity (ratio to wild type); higher = more cleavage; co-transcriptional
metric: self-cleavage
Respond using a number only.

sequence_variant="G28A A42U" metric=self-cleavage test_result=0.0723
sequence_variant="C30U U69G" metric=self-cleavage test_result=0.554

If you can, please state the reported self-cleavage value of U9G U79A .
0.68

Now give it for G53C A83G too.
0.815

Now give it for U12G C15G too.
0

Now give it for G29A C66G too.
0.204

Now give it for C13G C18G too.
0.138
